- assayExplanation: physchem
Positions of bridges follow the written chain, without caps; N, C: chain ends. Non-standard residues stand in square brackets, D forms with d. Residues, ends and D or L forms follow the SMILES beside them. Lys(N3) = [N-]=[N+]=NCCCC[C@H](N)C(=O)O; R8 = C=CCCCCCC[C@@](C)(N)C(=O)O; Cba = N[C@@H](CC1CCC1)C(=O)O; S5 = C=CCCC[C@](C)(N)C(=O)O; βAla = NCCC(=O)O; Sar = CNCC(=O)O
property: EPSA (A^2)

compound="CC(=O)N(C)CC(=O)N[C@@H](CCCCN=[N+]=[N-])C(=O)NCCC(=O)N[C@@H](C)C(=O)N[C@H](C(=O)N[C@@H](Cc1ccccc1)C(=O)N[C@]1(C)CCCCCCC=CCCC[C@@](C)(C(=O)N[C@@H](C)C(=O)N[C@@H](C)C(=O)N[C@@H](C)C(N)=O)NC(=O)[C@H](CC2CCC2)NC(=O)[C@H](C)NC(=O)[C@H](C)NC(=O)[C@H](Cc2c[nH]c3ccccc23)NC(=O)[C@H](Cc2ccc(O)cc2)NC(=O)[C@H](C)NC1=O)[C@@H](C)O [MP-895] (Ac-[Sar][Lys(N3)][βAla]ATF[R8]AYWAA[Cba][S5]AAA-NH2; staple 7-14)" experimentalresult=184
compound="CC(=O)N[C@@H](CCCCN=[N+]=[N-])C(=O)NCCC(=O)N[C@@H](CC(C)C)C(=O)N[C@H](C(=O)N[C@@H](Cc1ccccc1)C(=O)N[C@]1(C)CCCCCCC=CCCC[C@@](C)(C(=O)N[C@@H](CO)C(=O)N[C@@H](C)C(=O)N[C@@H](C)C(N)=O)NC(=O)[C@H](CC2CCC2)NC(=O)[C@H](CCC(N)=O)NC(=O)[C@H](C)NC(=O)[C@H](C)NC(=O)[C@H](Cc2ccc(O)cc2)NC(=O)[C@H](CCC(=O)O)NC1=O)[C@@H](C)O [MP-893, AZIDE-ATSP-7041(W7A)]" experimentalresult=192

* * *

- assayExplanation: in vitro
- reportedConditions: Nanoclick permeability assay EC50
Positions of bridges follow the written chain, without caps; N, C: chain ends. Non-standard residues stand in square brackets, D forms with d. Residues, ends and D or L forms follow the SMILES beside them. Lys(N3) = [N-]=[N+]=NCCCC[C@H](N)C(=O)O; R8 = C=CCCCCCC[C@@](C)(N)C(=O)O; Cba = N[C@@H](CC1CCC1)C(=O)O; S5 = C=CCCC[C@](C)(N)C(=O)O; βAla = NCCC(=O)O
Here, each record is paired with measured cell entry EC50 data.
property: cell entry EC50 (nM)

molecule=CC(=O)N[C@@H](CCC(=O)O)C(=O)N[C@@H](CCCCN=[N+]=[N-])C(=O)NCCCCCC(=O)N[C@H](C(=O)N[C@@H](CO)C(=O)N[C@@H](Cc1ccccc1)C(=O)N[C@]1(C)CCCCCCC=CCCC[C@@](C)(C(N)=O)NC(=O)[C@H](CC(C)C)NC(=O)[C@H](CC(C)C)NC(=O)[C@H](C)NC(=O)[C@H](Cc2c[nH]c3ccccc23)NC(=O)[C@H](Cc2ccc(O)cc2)NC(=O)[C@H](CCC(=O)O)NC1=O)[C@@H](C)O property="cell entry EC50" measurementqualifier== experimentalresult=415
molecule="CC(=O)N[C@@H](CCCCN=[N+]=[N-])C(=O)NCCC(=O)N[C@@H](CC(C)C)C(=O)N[C@H](C)C(=O)N[C@@H](Cc1ccccc1)C(=O)N[C@]1(C)CCCCCCC=CCCC[C@@](C)(C(=O)N[C@@H](CO)C(=O)N[C@@H](C)C(=O)N[C@@H](C)C(N)=O)NC(=O)[C@H](CC2CCC2)NC(=O)[C@H](CCC(N)=O)NC(=O)[C@H](C)NC(=O)[C@H](Cc2c[nH]c3ccccc23)NC(=O)[C@H](Cc2ccc(O)cc2)NC(=O)[C@H](CCC(=O)O)NC1=O [MP-7471] (Ac-[Lys(N3)][βAla]L[dA]F[R8]EYWAQ[Cba][S5]SAA-NH2; staple 6-13)" property="cell entry EC50" measurementqualifier=> experimentalresult=10000
